Target: T1, HOIP PUB domain N101R (UniProt Q96EP0 1-184, N101R)
T1 construct: HOIP PUB domain with N101R
T1 sequence (looked up): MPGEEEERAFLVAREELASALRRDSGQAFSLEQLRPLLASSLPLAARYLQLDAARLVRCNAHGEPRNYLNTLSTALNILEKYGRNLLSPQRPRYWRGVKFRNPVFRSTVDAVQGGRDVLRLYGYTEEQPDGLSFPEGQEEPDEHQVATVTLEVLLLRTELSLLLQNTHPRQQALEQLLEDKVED
Experiment: fluorescence polarisation; serially diluted PUB domains and HOIP variants mixed with an equal volume of 100 nM FITC-Ahx-labeled peptide; one-site binding model; triplicate
Conditions: both partners purified
pKd: −log10 of the molar value. No end group written: not given here. *: point of attachment. FITC = O=C1OC2(c3ccc(O)cc3Oc3cc(O)ccc32)c2ccc(NC(=S)*)cc21; Ahx = NCCCCCC(=O)O
Parameter pKd: see the listing below.
metric: pKd

[[record]]
binder = "{FITC-Ahx}-AEHEEDMYRAADEIEKEKE (peptide, UniProt Q96BN8 49-67, looked up, OTULIN, residues 49-67, holds the EEDMYR motif (residues 52-57); also called OTULIN peptide; wild-type OTULIN PIM peptide) [FITC-Ahx-labeled OTULIN PIM peptide (aa 49–67)]"
endpointvalue = 7.00

[[record]]
binder = "{FITC-Ahx}-TEDNDDDLYG (peptide, UniProt P55072 797-806, looked up, p97 (VCP), C-terminal residues 797-806; also called p97 peptide; fluorescent p97 PIM peptide) [FITC-Ahx-labeled p97 PIM peptide (aa 797–806)]"
endpointvalue = 6.05

